Property: kon; scope: individual binders
- Test target: T1, His-tagged human TFR1 (transferrin receptor 1) protein (human, UniProt P02786 89-760)
- T1 construct: Bought protein; The order of the tag and the receptor part is not known; also called hTFR1-His; ACROBiosystems Cat #: CD1-H5243; not shown: His tag
- T1 sequence (P02786 89-760 limits assumed): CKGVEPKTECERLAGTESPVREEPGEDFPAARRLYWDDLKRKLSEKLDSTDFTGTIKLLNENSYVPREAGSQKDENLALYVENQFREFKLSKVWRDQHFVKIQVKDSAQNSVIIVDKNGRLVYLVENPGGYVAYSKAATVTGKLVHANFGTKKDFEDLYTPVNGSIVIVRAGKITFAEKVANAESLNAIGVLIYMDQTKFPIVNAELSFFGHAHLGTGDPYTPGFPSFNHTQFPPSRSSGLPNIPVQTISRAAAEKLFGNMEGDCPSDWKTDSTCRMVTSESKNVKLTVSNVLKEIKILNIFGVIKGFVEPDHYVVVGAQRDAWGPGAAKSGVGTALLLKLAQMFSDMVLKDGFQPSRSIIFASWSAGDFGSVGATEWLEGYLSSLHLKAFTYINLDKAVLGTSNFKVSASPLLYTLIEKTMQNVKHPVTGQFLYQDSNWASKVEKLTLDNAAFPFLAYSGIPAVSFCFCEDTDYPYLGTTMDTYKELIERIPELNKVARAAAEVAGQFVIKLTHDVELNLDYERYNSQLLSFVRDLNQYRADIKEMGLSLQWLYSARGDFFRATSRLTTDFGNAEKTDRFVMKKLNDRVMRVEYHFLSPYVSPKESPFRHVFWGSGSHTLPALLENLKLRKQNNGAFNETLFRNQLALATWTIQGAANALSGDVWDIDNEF
- Method: SPR, Biacore 8K; antibody captured on Protein A chip, hTFR1-His as analyte; 1:1 Langmuir fit
// note: answer is a bare numeric in M⁻¹ s⁻¹

Illustrative cases are given below, each with its answer.
Binder	Unit abbreviation	kon
24C9 (antibody, human IgG1, V domains shown, Heavy-chain antibody without light chain; also called anti-TFR1 antibody 24C9) VH: EVQLVQSGGGVVQPGRSLRLSCAASGFTLSSYGMYWVRQAPGKGREWVAFIRFDESKKYYADSVKGRFTISRDNSKNTLYLQMNSLRAEDTAVYYCARDGEGGYCTNGVCHGLDVWGQGTTVTVSS	M⁻¹ s⁻¹	26800
24A1 (antibody, human IgG1, V domains shown, Heavy-chain antibody without light chain; also called anti-TFR1 antibody 24A1) VH: EVQLVESGGGLVQPGGSLRLTCAASGFTFSSYAMSWVRQAPGKGLERVSEISGSGSSTNYADSVKGRFTISRDNSKNTLYLQMNSLRAEDTAVYYCAKDDSSGWAFNIWDQGTVVTVSS	M⁻¹ s⁻¹	26200
24G5 (antibody, human IgG1, V domains shown, Heavy-chain antibody without light chain; also called anti-TFR1 antibody 24G5) VH: QLQLQESGGGLVQPGGSLRLTCAASGFTFSSFAMSWVRQAPGKGLERVSEISDSGGNTYYADSVKGRFTISRDNSKNTLYLQMNSLRAEDTAVYYCAKDDSSGWAFNIWDQGTVVTVSS	M⁻¹ s⁻¹	42400

Please turn your attention to the following entry.
[in] Any idea what its kon is? The binder is 23B8 (antibody, V domains shown, Heavy-chain antibody without light chain; also called anti-TFR1 antibody 23B8) VH: QVTLKESGGGLVKPGGSLRLSCAASGFPFSNAWMNWVRQAPGKGLEWVGHIKSKTDGGTTDYAAPVKGRFTISRDDSKNMVFLQMNSLKTEDTAVYYCTTDRAYCGGDCSHYYYHDLDVWGQGTTVTVSS
[out] 15100
